test summary: Short-term stability in spiked pooled human plasma (bench-top, 4 °C, 56 °C)
conditions used: validation standard ULOV
# note: boundary value 90% maps to not met; Short-time stability (24h, RT, with daylight) Accuracy [%] below it maps to met

# compound, label class
measured = [
    ("CNC(=O)c1ccc(N2C(=S)N(c3cnc(C#N)c(C(F)(F)F)c3)C(=O)C23CCC3)cc1F [Apalutamide]", "met"),
    ("Cc1ccc(Nc2nccc(N(C)c3ccc4c(C)n(C)nc4c3)n2)cc1S(N)(=O)=O", "not met"),
    ("CS(=O)(=O)c1ccc(C(=O)Nc2ccc(Cl)c(-c3ccccn3)c2)c(Cl)c1", "not met"),
    ("CC1(C)CCC(CN2CCN(c3ccc(C(=O)NS(=O)(=O)c4ccc(NCC5CCOCC5)c([N+](=O)[O-])c4)c(Oc4cnc5[nH]ccc5c4)c3)CC2)=C(c2ccc(Cl)cc2)C1", "not met"),
    ("CCN(CC)CCNC(=O)c1c(C)[nH]c(/C=C2\\C(=O)Nc3ccc(F)cc32)c1C", "not met"),
    ("COc1cc2c(Nc3ccc(Br)cc3F)ncnc2cc1OCC1CCN(C)CC1", "met"),
    ("Cc1ccc(NC(=O)c2ccc(CN3CCN(C)CC3)cc2)cc1Nc1nccc(-c2cccnc2)n1", "met"),
    ("COC(=O)N[C@@H](C)CNc1nccc(-c2cn(C(C)C)nc2-c2cc(Cl)cc(NS(C)(=O)=O)c2F)n1", "not met"),
    ("Nc1cccc2c1C(=O)N(C1CCC(=O)NC1=O)C2=O (stereo not drawn) [Pomalidomide]", "met"),
    ("CC(C)(C)c1nc(-c2cccc(NS(=O)(=O)c3c(F)cccc3F)c2F)c(-c2ccnc(N)n2)s1", "not met"),
]

* * *

test summary: Long-term stability in spiked pooled human plasma
conditions used: validation standard MOV
Long-term stability, 3 month, -20°C Accuracy [%] overview
measured attribute: Long-term stability, 3 month, -20°C Accuracy [%] (%)

# molecule, unit tag, reported
data = [
    ("C#Cc1cccc(Nc2ncnc3cc(OCCOC)c(OCCOC)cc23)c1 [Erlotinib]", "%", 102.2),
    ("CCC1=C[C@@H]2CN(C1)Cc1c([nH]c3ccccc13)[C@@](C(=O)OC)(c1cc3c(cc1OC)N(C)[C@H]1[C@@](O)(C(=O)OC)[C@H](OC(C)=O)[C@]4(CC)C=CCN5CC[C@]31[C@@H]54)C2 [Vinorelbine]", "%", 98.2),
    ("CNCc1ccc(-c2[nH]c3cc(F)cc4c3c2CCNC4=O)cc1 [Rucaparib]", "%", 101.6),
    ("C=CC(=O)Nc1cc(Nc2nccc(-c3cn(C)c4ccccc34)n2)c(OC)cc1N(C)CCN(C)C [Osimertinib]", "%", 90.9),
    ("Cc1nc(Nc2ncc(C(=O)Nc3c(C)cccc3Cl)s2)cc(N2CCN(CCO)CC2)n1 [Dasatinib]", "%", 102.9),
    ("CCN(CC)CCNC(=O)c1c(C)[nH]c(/C=C2\\C(=O)Nc3ccc(F)cc32)c1C [Sunitinib]", "%", 123.6),
    ("CNC(=O)c1cc(Oc2ccc(NC(=O)Nc3ccc(Cl)c(C(F)(F)F)c3)c(F)c2)ccn1 [Regorafenib]", "%", 97.1),
    ("COC(=O)c1ccc2c(c1)NC(=O)/C2=C(\\Nc1ccc(N(C)C(=O)CN2CCN(C)CC2)cc1)c1ccccc1 [Nintedanib]", "%", 97.2),
]
